# System: MEK and ERK kinase phosphorylation
# method notes: Immunoblot of downstream MEK and ERK kinase phosphorylation in A375 cells
# Format: cell-based
# study conditions: A-375, read-out: BRAF^V600E IC50, inhibition of downstream MEK and ERK kinase phosphorylation; A375 human melanoma cells, 24 hrs, 0 to 4000 nM
observation type: IC50
Record the result as a number with its unit.

Incoming: # input compound: CCCS(=O)(=O)Nc1ccc(F)c(-n2cc(-c3cncnc3)c3nc(N(C)C4CCN(C(=O)CCOCCOCCOCCOCCNc5cccc6c5C(=O)N(C5CCC(=O)NC5=O)C6=O)CC4)ccc32)c1F (stereo not shown) ; wanted: its IC50
Outgoing: 20 nM

* * *

// DC50 lookup, one value per entry
# system tested: BRAF^V600E (Homo sapiens, UniProt P15056, V600E)
# Construct: A375 or SK-Mel-28 cells were obtained from ATCC; host or cells: A375 or SK-Mel-28
# Sequence (P15056 whole entry V600E): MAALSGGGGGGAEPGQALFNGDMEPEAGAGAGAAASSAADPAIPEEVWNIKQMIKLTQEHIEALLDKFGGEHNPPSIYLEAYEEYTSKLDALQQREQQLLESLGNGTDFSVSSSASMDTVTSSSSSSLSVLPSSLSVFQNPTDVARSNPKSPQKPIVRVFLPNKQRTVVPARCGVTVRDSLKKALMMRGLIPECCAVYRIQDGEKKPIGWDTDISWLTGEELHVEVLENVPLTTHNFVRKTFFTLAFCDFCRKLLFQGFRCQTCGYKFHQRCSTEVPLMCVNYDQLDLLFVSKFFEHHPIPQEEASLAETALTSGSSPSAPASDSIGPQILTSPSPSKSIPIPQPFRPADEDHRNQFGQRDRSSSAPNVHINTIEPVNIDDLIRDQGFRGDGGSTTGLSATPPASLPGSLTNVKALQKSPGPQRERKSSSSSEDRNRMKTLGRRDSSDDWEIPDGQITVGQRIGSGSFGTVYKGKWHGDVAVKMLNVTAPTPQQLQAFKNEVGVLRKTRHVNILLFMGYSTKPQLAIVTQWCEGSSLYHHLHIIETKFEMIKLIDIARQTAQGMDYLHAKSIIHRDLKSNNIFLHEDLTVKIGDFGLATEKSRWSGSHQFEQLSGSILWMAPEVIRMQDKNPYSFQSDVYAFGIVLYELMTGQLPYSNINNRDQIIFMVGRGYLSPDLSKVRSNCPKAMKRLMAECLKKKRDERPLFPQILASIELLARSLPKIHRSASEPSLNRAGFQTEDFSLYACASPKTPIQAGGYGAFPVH
# method notes: Cellular degradation assay, Western blot of BRAF^V600E
# Type: cell-based
# study conditions: Table 1; cells treated 24 hours, Western blot; read-out: DC50(nM) BRAF^V600E
Report the figure in nM without appending any unit label.

compound	DC50 / nM
CCCS(=O)(=O)Nc1ccc(F)c(-n2cc(-c3cncnc3)c3nc(N(C)C4CCN(C(=O)CCOCCOCCOCCOCCOCCNc5cccc6c5C(=O)N(C5CCC(=O)NC5=O)C6=O)CC4)ccc32)c1F (stereo not drawn)	50
CCCS(=O)(=O)Nc1ccc(F)c(-n2cc(-c3cncnc3)c3nc(N(C)C4CCN(C(=O)CCOCCOCCOCCOCCOCCOCCOCCOCCNc5cccc6c5C(=O)N(C5CCC(=O)NC5=O)C6=O)CC4)ccc32)c1F (stereo not drawn)	75

Incoming: Recorded DC50 for CCCS(=O)(=O)Nc1ccc(F)c(-n2cc(-c3cncnc3)c3nc(N(C)C4CCN(C(=O)CCOCCOCCOCCOCCNc5cccc6c5C(=O)N(C5CCC(=O)NC5=O)C6=O)CC4)ccc32)c1F (stereo not drawn) , please?
Outgoing: 15

* * *

# system tested: B-Raf (V600E) (h) (Homo sapiens, UniProt P15056, V600E)
# Sequence (P15056 whole entry V600E): as the sequence (P15056 whole entry V600E) above
# method notes: Kinase inhibition assay B-Raf (V600E) (h), radiometric 33P-ATP filter assay
# Type: biochemical
# study conditions: read-out: IC50(nM) BRAF^V600E
Consider the following compounds and their measured IC50 readings.
Write the value in nM as a bare number.

The examples below pair each entry with its known result.
compound	observation type	result number
CCCS(=O)(=O)Nc1ccc(F)c(-n2cc(-c3cncnc3)c3nc(N(C)C4CCN(C(=O)CCOCCOCCOCCOCCNc5cccc6c5C(=O)N(C5CCC(=O)NC5=O)C6=O)CC4)ccc32)c1F (centres unmarked)	IC50	12
CCCS(=O)(=O)Nc1ccc(F)c(-n2cc(-c3cncnc3)c3nc(N(C)C4CCN(CC)CC4)ccc32)c1F [Entry 15, reference compound]	IC50	31
CCCS(=O)(=O)Nc1ccc(F)c(-n2cc(-c3cncnc3)c3nc(N(C)C4CCN(C(=O)CCOCCOCCOCCOCCOCCNc5cccc6c5C(=O)N(C5CCC(=O)NC5=O)C6=O)CC4)ccc32)c1F (centres unmarked)	IC50	25

Incoming: # input compound: CCCS(=O)(=O)Nc1ccc(F)c(-n2cc(-c3cncnc3)c3nc(N(C)C4CCN(C(=O)CCOCCOCCOCCNc5cccc6c5C(=O)N(C5CCC(=O)NC5=O)C6=O)CC4)ccc32)c1F (centres unmarked) [Entry 2] ; wanted: its IC50
Outgoing: 47

Incoming: // next record CCCS(=O)(=O)Nc1ccc(F)c(-n2cc(-c3cncnc3)c3nc(N(C)C4CCN(C(=O)CCOCCOCCOCCOCCOCCOCCOCCOCCNc5cccc6c5C(=O)N(C5CCC(=O)NC5=O)C6=O)CC4)ccc32)c1F (centres unmarked)
Outgoing: 85

Incoming: Next up: CCCS(=O)(=O)Nc1ccc(F)c(-n2cc(-c3cncnc3)c3nc(N(C)C4CCN(C(=O)CCOCCOCCOCCNc5cccc6c5C(=O)N(C5CCC(=O)NC5=O)C6=O)CC4)ccc32)c1F (centres unmarked) [Entry 16]
Outgoing: 65

Incoming: Input CCCS(=O)(=O)Nc1ccc(F)c(-n2cc(-c3cncnc3)c3nc(N(C)C4CCN(C(=O)CCOCCOCCOCCOCCOCCOCCNc5cccc6c5C(=O)N(C5CCC(=O)NC5=O)C6=O)CC4)ccc32)c1F (centres unmarked)
Outgoing: 83

Incoming: Now try CCCS(=O)(=O)Nc1ccc(F)c(-n2cc(-c3cncnc3)c3nc(N(C)C4CCN(C(=O)CCC(=O)NCCCOCCOCCOCCCNc5cccc6c5C(=O)N(C5CCC(=O)NC5=O)C6=O)CC4)ccc32)c1F (centres unmarked) .
Outgoing: 82

* * *

# system tested: CRAF (Homo sapiens)
# Sequence (P04049 whole entry): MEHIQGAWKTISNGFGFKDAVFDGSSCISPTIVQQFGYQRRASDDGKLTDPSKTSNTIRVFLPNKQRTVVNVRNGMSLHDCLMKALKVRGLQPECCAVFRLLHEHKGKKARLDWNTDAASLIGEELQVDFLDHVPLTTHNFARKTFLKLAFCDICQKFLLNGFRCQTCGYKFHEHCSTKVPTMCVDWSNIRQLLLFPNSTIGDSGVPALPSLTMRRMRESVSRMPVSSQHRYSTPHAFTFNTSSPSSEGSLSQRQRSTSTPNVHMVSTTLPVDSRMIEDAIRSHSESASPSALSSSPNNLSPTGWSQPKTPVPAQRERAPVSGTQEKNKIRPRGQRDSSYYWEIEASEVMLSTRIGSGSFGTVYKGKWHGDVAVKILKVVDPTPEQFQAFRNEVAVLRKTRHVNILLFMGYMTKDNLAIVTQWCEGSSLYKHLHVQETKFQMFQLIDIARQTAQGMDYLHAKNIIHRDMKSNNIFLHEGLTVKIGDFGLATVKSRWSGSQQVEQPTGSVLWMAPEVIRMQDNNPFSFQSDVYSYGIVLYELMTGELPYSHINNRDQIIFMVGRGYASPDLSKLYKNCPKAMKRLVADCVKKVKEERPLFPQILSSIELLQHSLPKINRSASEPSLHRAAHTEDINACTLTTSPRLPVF
# method notes: Kinase inhibition assay CRAF (similar protocol)
# Assay type: biochemical
Hi! Could you tag entries with IC50 below 500 nM as class 1, and those at or above as class 0? Much appreciated.

Examples with answers:
compound	system tested	class label
CCCS(=O)(=O)Nc1ccc(F)c(-n2cc(-c3cncnc3)c3nc(N(C)C4CCN(CC)CC4)ccc32)c1F [Entry 15, reference compound]	CRAF (Homo sapiens)	class 1
CCCS(=O)(=O)Nc1ccc(F)c(-n2cc(-c3cncnc3)c3nc(N(C)C4CCN(C(=O)CCOCCOCCOCCOCCOCCOCCOCCOCCNc5cccc6c5C(=O)N(C5CCC(=O)NC5=O)C6=O)CC4)ccc32)c1F (centres unmarked)	CRAF (Homo sapiens)	class 0
CCCS(=O)(=O)Nc1ccc(F)c(-n2cc(-c3cncnc3)c3nc(N(C)C4CCN(C(=O)CCOCCOCCOCCOCCNc5cccc6c5C(=O)N(C5CCC(=O)NC5=O)C6=O)CC4)ccc32)c1F (centres unmarked)	CRAF (Homo sapiens)	class 1
CCCS(=O)(=O)Nc1ccc(F)c(-n2cc(-c3cncnc3)c3nc(N(C)C4CCN(C(=O)CCOCCOCCOCCNc5cccc6c5C(=O)N(C5CCC(=O)NC5=O)C6=O)CC4)ccc32)c1F (centres unmarked) [Entry 16]	CRAF (Homo sapiens)	class 0

Consider now this further compound.
Incoming: Is IC50 of CCCS(=O)(=O)Nc1ccc(F)c(-n2cc(-c3cncnc3)c3nc(N(C)C4CCN(C(=O)CCOCCOCCOCCOCCOCCOCCNc5cccc6c5C(=O)N(C5CCC(=O)NC5=O)C6=O)CC4)ccc32)c1F (centres unmarked) strictly below 500 nM?
Outgoing: class 0

* * *

# system tested: BRAF (Homo sapiens, UniProt P15056)
# Sequence (P15056 whole entry): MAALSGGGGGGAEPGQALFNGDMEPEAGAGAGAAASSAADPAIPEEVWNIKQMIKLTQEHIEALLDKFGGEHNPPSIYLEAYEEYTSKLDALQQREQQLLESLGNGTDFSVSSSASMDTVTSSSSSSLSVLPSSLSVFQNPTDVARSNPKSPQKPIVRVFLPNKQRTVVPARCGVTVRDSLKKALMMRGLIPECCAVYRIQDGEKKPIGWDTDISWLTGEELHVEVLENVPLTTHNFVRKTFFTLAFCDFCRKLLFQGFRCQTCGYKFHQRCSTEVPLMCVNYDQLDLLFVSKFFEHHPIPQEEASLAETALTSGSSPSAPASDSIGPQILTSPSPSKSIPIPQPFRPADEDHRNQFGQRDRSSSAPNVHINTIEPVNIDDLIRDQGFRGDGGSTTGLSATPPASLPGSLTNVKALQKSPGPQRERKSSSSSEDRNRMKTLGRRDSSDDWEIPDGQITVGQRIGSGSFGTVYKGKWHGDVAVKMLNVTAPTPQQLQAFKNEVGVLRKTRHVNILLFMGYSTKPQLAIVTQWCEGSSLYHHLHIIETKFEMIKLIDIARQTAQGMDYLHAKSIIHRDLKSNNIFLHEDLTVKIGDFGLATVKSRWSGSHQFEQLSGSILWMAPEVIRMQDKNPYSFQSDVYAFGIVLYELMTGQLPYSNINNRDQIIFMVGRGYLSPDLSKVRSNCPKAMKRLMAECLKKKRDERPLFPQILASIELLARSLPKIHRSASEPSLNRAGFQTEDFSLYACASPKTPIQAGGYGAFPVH
# method notes: Kinase inhibition assay BRAF (similar protocol)
# Assay type: biochemical
observation type: IC50 (nM)
A number alone suffices; assume nM.

compound	system tested	IC50, nM
CCCS(=O)(=O)Nc1ccc(F)c(-n2cc(-c3cncnc3)c3nc(N(C)C4CCN(C(=O)CCOCCOCCOCCOCCOCCNc5cccc6c5C(=O)N(C5CCC(=O)NC5=O)C6=O)CC4)ccc32)c1F (centres unmarked)	BRAF (Homo sapiens, UniProt P15056)	66

Incoming: Give its IC50 value. Item: CCCS(=O)(=O)Nc1ccc(F)c(-n2cc(-c3cncnc3)c3nc(N(C)C4CCN(C(=O)CCOCCOCCOCCOCCNc5cccc6c5C(=O)N(C5CCC(=O)NC5=O)C6=O)CC4)ccc32)c1F (centres unmarked)
Outgoing: 58
